- TARGET_OR_TEST_SYSTEM: Bem1-1, P29366
- Sequence (P29366 55-141): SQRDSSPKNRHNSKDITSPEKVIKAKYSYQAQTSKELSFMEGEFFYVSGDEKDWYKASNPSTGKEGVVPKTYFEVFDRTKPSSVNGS
- MEASUREMENT_PROTOCOL: SPOT array
- MEASUREMENT_SETUP: median of control spots 4282
OBSERVED_PROPERTY: SPOT intensity

Request: Recorded SPOT intensity for `VYTRTAFQIPGDDKI` , please?
Result: 0

Request: Cool, now `TSIEIPKRSPLRFTS`
Result: 0

Request: Let us now turn to `RVTRKRPREPKSTND`
Result: 2

Request: Please give the result for `APERAVPILPPRNNV` too.
Result: 1
